# PROCEDURE SUMMARY: soluble on expression in E. coli; label from the status in PepcDB or PDB records

{"POLYMER SEQUENCE": "DAYIGVLIDDLVTKGTNEPYRLLTSRAEYRLLLRHDNADLRLTDMGYELGMISEERYARFNEKRQQIDAEIKRLSDIRIKPNEHTQAIIEQHGGSRLKDGILAIDLLRRPEMTYDIILEILEEEHQLNADVEEQVEIQTKYEGYINKSLQQVEKVKRMEEKKIPEDLDYSKIDSLATEAREKLSEVKPLNIAQASRISGVNPADISILLIYLEQG", "soluble on expression in E. coli": "not soluble"}
{"POLYMER SEQUENCE": "MSVIIVGGGMAGATLALAISQFSHGTLPVHLIEAKAPEADGHPGFDARAIALAAGTCQQLARIGVWLAISDCATAINTVHVSDRGHAGFVTLDAQDYSLAALGHVAELHDIGLRLFALLRKAPGVTLHCPERVASVSRTQQQVNVTLENGNVIAGSVLVAANGTHSALASACGVDWHQEPYEQLAVIANVATAIPHQGRAFERFTPNGPLAMLPMSHGRCSLVWCHPLDQRDEVLSWSDAQFCHALQAAFGWRLGRITQAGKRSAYPLALTTAAKVFTHRTVVVGNAAQTLHPIAGQGFNLGLRDVMSLAETLVAAQDAGEDIGAWHVLSRYQQRRQVDRDTTIGVTNGLVHLFANRWAPLVIGRNIGLMAMELLPPARDALAQRTLGWVARLEHHHHHH", "soluble on expression in E. coli": "soluble"}
{"POLYMER SEQUENCE": "MTKVALFSGGDLTYFTRDFDYFVGIDKGSSFLLKNQLPLDLAIGDFDSVSAEEFKQIKAKAKKLVMAPAEKNDTDTELALKTIFDCFGRVEIIVFGAFGGRIDHMLSNIFLPSDPDLAPFMRCFKLRDEQNLVEFFPAGQHQIEQATDMVYISFMAANGAHLSIQDAKYELTEENYFQKKIYSSNEFKDKPICFSVASGYVVVIQTKDRTLEHHHHHH", "soluble on expression in E. coli": "soluble"}
{"POLYMER SEQUENCE": "MGSDKIHHHHHHMTEVISTQSVVDLAAIAEKFAFPGTVTNVQAFGSGNINDTFLVTVDSLEAQHFILQRINTLVFRQPELIMQNMRIFSDHVYQRLQYAPPSRRWEVPRILSTKDNHDYCTDTQGNFWRAISFISGSQSFDTMQDLAQAQEIGYALGMFHNLISDLSPEKLADTLVGFHITPLYLRHYEQVLATAKPQPSPELDYCLQFVSDRQSYACILENAKAAGELPLRLMHGDPKINNIMFDTVTHKAVSVIDLDTVKPGLVHYDIGDCLRSGCNHAGEETEHWESVAFDTDLCQGILQGYLSVAKDFLTENDYAYMYDAIRLIAFELGLRFFADYLAGNVYFKIKYPEHNLARALVQFKLTESIESQEIKIRKIIQDIK", "soluble on expression in E. coli": "not soluble"}
{"POLYMER SEQUENCE": "MRAVIPYKKAGAKSRLSPVLSLQEREEFVELMLNQVISSLKGAGIEQVDILSPSVYGLEEMTEARVLLDEKDLNEALNRYLKEAEEPVLIVMADLPLLSPEHIKEISSTEKDVCIVPGKGGGTNALFIKNPSKYRVKYYGSSFLTHCSIATDSGQDFEIYDSFMAGTDIDEPEDLVELLIHGKGAAKDYIESKFRLEVKKG", "soluble on expression in E. coli": "not soluble"}
{"POLYMER SEQUENCE": "GPGSMPVPPPPPPPPPPPPPPPPPANSGGPSASVGGAAAAVFAEICQGGDNITARLRHVTDDQKMYKQNIRHGEVDMSELEHKKAAAEERRRAQQRTESTTGEEAAQPPVLTLEGDKRWVVKHQAGSPAVQLQLVLDKAEMRHAVRIENCHHAYITITNKVNSVSIVNCTKVQVALQVIVSSLEVLGCADVDVQVAQAAPTIDIERSTSVNVYLLDKDEARNTEIVTACSSTVNVLFPSEKEEDIVERAIPEQFVTRIVPDGKGGHKLCTKPSESF", "soluble on expression in E. coli": "soluble"}
{"POLYMER SEQUENCE": "MSLTYEKLYELRQTLRPTTKDGLYTDNEKNREILTVRWSGNTENPKNFSAVAIGINPSKANDERSDKTLTQLARFLDMYGFTNFKMLNIFSSYSTQQTGIRANTQTDFSKFKGCLEDADMIILAWGTDRGAYKDEKNRILEFLKAEKFMEKVFCISETGNSSDTRHPSRISYSYQLVQFEESAEGGSHHHHHH", "soluble on expression in E. coli": "soluble"}
{"POLYMER SEQUENCE": "KYDNKEFSSAVGHYGVGNGPYFMIPGYGPYTLREVTDTVDGMYLPLSYLNIWAGLGKWALEGLEKRALLVPQEAQLDSSPDPYVLTRDVYIQRQNFKAEIDTVEEVNPEEEALLDEYLDEF", "soluble on expression in E. coli": "not soluble"}
{"POLYMER SEQUENCE": "MGSDKIHHHHHHMLVVKDKPKSPISEAYRTLRSNIQFSSFDKDMQLILITSSGPGEGKSTTSCNLALAMAEAGNSVLLLDCDLRKPSVHKKFKISNNIGLSNVLAGQTKFESASHWYNQNLCILTAGKIPPNPAEMLSSKRMKAFLNEAKGVFKYIILDAPPVIAVTDPQILSTMVDGVVLVVSSGVADIEAAKRAKELLENVNANIIGSVLNRVDTESRRGYYGGYYYYYGDEGEKVKKHKDR", "soluble on expression in E. coli": "not soluble"}
{"POLYMER SEQUENCE": "KVVLISDVHVGSSQFLEDAWLDFLDFLKGESDSEEMREIASQVRYLVVAGDLVDGIGIYPDQEMELDILDVYEQYRKAADYFKEIPRHIRVIISPGNHDAVRQAEPQPALPERICADFPENVTFVGNPALVDLDGIRILIYHGRSIDDLVASVPGVSYHEPAGAVLEMLKRRHLAPTYGSRVSISPEKKDYFIIDPVPDIIHTGHVHTLGVQRYKNVLLVNSGTWQAQTEFQKRVNLVPVPARVPVVDLADFDVKILAFD", "soluble on expression in E. coli": "not soluble"}
{"POLYMER SEQUENCE": "MRILEEDLKNSTYRIRIESLDDLWYLRNILSEGDEVSAITFRRVEESADVQRSRERERIPITIRLKVEKIEFQDFDNRLRILGTVIEGPEDTKGKHQSITVTVDSEISITKEWDDQHIDLLKEATDEKYVTVYTAVAMDEDEAQIFLIHPYGIQQVGTVYSGRSGKYAEGNYSEASYFDQIVNALKNYSNSIIILGPGFARDRFARYCAQRGVNVIGSFPANRTDSGAVYEFITSADGAKLLSNERIARDKEIVDEFLVAVKKDMGVYGRDQTESALQMGALSDLIITDEMFRTEDGRRSLSIAQTVGTRIHIVSVSNDPGQIVKKFGGFAGILRYRVQLEHHHHHH", "soluble on expression in E. coli": "soluble"}

The measured values listed here are drawn from the DeepSol protein solubility set.
